# TEST_METHOD_NOTES: General cytotoxicity on HepG2 cells
# Type: cell-based
# EXPERIMENTAL_CONDITIONS: human; general cytotoxicity, HepG2 cells, 72 hours, average of several tests
Assign CC50 at 72 h to each entry below.
Numbers only, in µM.

Below: 5 molecules and their reported CC50 at 72 h.
C=CC(=O)Nc1cc(Nc2nccc(C(=O)c3ccc(N4CCC(C#N)CC4)cc3)n2)c(OC)cc1N(C)CCN(C)C; 21.6
C=CC(=O)Nc1cc(Nc2nccc(C(=O)c3ccc(OCCC)cc3OCCC)n2)c(OC)cc1N(C)CCN(C)C; 11.5
C=CC(=O)Nc1cc(Nc2nccc(C(=O)c3cc4ccccc4n3C)n2)c(OC)cc1N(C)CCN(C)C; 12
C=CC(=O)Nc1cc(Nc2cc(C(=O)c3ccc(OC)cc3OC)ccn2)c(OC)cc1N(C)CCN(C)C; 19.5
C=CC(=O)Nc1cc(Nc2nccc(C(=O)c3ccc(OCC)cc3OCC)n2)c(OC)cc1N(C)CCN(C)C; 28.6

Next:
Req: Please look up its CC50 at 72 h: C=CC(=O)Nc1cc(Nc2nccc(C(=O)c3ccc(N4CCCC4)cc3)n2)c(OC)cc1N(C)CCN(C)C
Resp: 13

* * *

# TEST_METHOD_NOTES: General cytotoxicity on HepG2 cells
# Assay type: cell-based
# EXPERIMENTAL_CONDITIONS: human; general cytotoxicity, HepG2 cells, 72 hours, average of several tests
PARAMETER: CC50 at 72 h (µM)
Numbers only, in µM.

Below: 5 molecules and their reported CC50 at 72 h.
C=CC(=O)Nc1cc(Nc2nccc(C(=O)c3cccc(F)c3)n2)c(OC)cc1N(C)CCN(C)C [EGFR_3365_11]; 15
C=CC(=O)Nc1cc(Nc2nccc(C(=O)c3ccc(OC4CC4)cc3)n2)c(OC)cc1N(C)CCN(C)C [EGFR_3365_116]; 22.1
C=CC(=O)Nc1cc(Nc2nccc(C(=O)c3ccc(OC(C)C)cc3OC)n2)c(OC)cc1N(C)CCN(C)C [EGFR_3365_103]; 29.4
C=CC(=O)Nc1cc(Nc2nccc(C(=O)c3cccc(OC)c3)n2)c(OC)cc1N(C)CCN(C)C [EGFR_3365_32]; 24.8
C=CC(=O)Nc1cc(Nc2nccc(C(=O)c3ccccc3[N+](=O)[O-])n2)c(OC)cc1N(C)CCN(C)C [EGFR_3365_36]; 36.5

Record CC50 at 72 h for all entries; do not skip any.
1. C=CC(=O)Nc1cc(Nc2nccc(C(=O)c3ccc(OCCCC)cc3)n2)c(OC)cc1N(C)CCN(C)C [EGFR_3365_66]
2. C=CC(=O)Nc1cc(Nc2nccc(C(=O)c3ccc(N4CC[C@@H](O)C4)cc3)n2)c(OC)cc1N(C)CCN(C)C [EGFR_3365_113]

Resp:
9.64
46.3

* * *

# System: H1975 (lung adenocarcinoma, DM, L828R/T790M)
# TEST_METHOD_NOTES: Antiproliferative activity on H1975 cells (Alamar Blue)
# Assay type: cell-based
# EXPERIMENTAL_CONDITIONS: selectivity index, A549 vs H1975 cells
Counter-ions that a name gives are not always drawn.
PARAMETER: SI IC50(A549)/IC50(DM)
One number for each entry.

C=CC(=O)Nc1cc(Nc2nccc(C(=O)c3ccccc3[N+](=O)[O-])n2)c(OC)cc1N(C)CCN(C)C; 402.37
C=CC(=O)Nc1cc(Nc2nccc(C(=O)c3ccc(N4CCCC4)cc3)n2)c(OC)cc1N(C)CCN(C)C; 5383
C=CC(=O)Nc1cc(Nc2nccc(C(=O)c3ccc(OC(C)C)cc3)n2)c(OC)cc1N(C)CCN(C)C; 1509.19
C=CC(=O)Nc1cc(Nc2nccc(C(=O)c3ccc(OCCC)cc3OC)n2)c(OC)cc1N(C)CCN(C)C; 645
C=CC(=O)Nc1cc(Nc2nccc(C(=O)c3ccc(N(CC)CC)cc3)n2)c(OC)cc1N(C)CCN(C)C; 932
C=CC(=O)Nc1cc(Nc2cc(C(=O)c3ccc(OCC(C)C)cc3)ccn2)c(OC)cc1N(C)CCN(C)C; 9
C=CC(=O)Nc1cc(Nc2cc(C(=O)c3ccc(OCCOC)cc3)ccn2)c(OC)cc1N(C)CCN(C)C; 88
C=CC(=O)Nc1cc(Nc2nccc(C(=O)c3ccc(N4CCC(N(C)C)CC4)cc3)n2)c(OC)cc1N(C)CCN(C)C [EGFR_3365_121a]; 1284
C=CC(=O)Nc1cc(Nc2nccc(C(=O)c3ccc(OCCOC)cc3)n2)c(OC)cc1N(C)CCN(C)C; 652
C=CC(=O)Nc1cc(Nc2nccc(C(=O)c3ccc(N4CCCC4)cc3OC)n2)c(OC)cc1N(C)CCN(C)C; 6105

Record SI IC50(A549)/IC50(DM) for all entries; do not skip any.
1. C=CC(=O)Nc1cc(Nc2nccc(C(=O)c3ccc(N4CCC[C@H](O)C4)cc3)n2)c(OC)cc1N(C)CCN(C)C
2. C=CC(=O)Nc1cc(Nc2cc(C(=O)c3ccc(OC)cc3OC)ccn2)c(OC)cc1N(C)CCN(C)C
3. C=CC(=O)Nc1cc(Nc2nccc(C(=O)c3ccc(N4CCN(C)CC4)cc3)n2)c(OC)cc1N(C)CCN(C)C [EGFR_3365_62, formate]

Resp:
1: 4925; 2: 139; 3: 539
